Test system: SF-295
Assay: NCI tumour cell line growth inhibition, 48 h
Calls of active or inactive are those of the source. Rule as the data show it: active = GI50 up to about 1.1 µM and inactive = higher.
Labels: T for active, F for inactive

[[record]]
molecule = "C=CC(C)(C)[C@@]12CC3C(=O)N[C@@H](Cc4ccccc4)C(=O)N3[C@@H]1N(C(C)=O)c1ccccc12 (stereo partly drawn)"
class_assignment = "F"

[[record]]
molecule = "COc1ccc2c(c1)[C@@H](NC(C)=O)CCc1cc(OC)c(OC)c(OC)c1-2"
class_assignment = "T"

[[record]]
molecule = "CC(=O)OCC1OC(n2c(-c3ccc(C)cc3)cc(-c3ccccc3)c(C#N)c2=S)C(OC(C)=O)C(OC(C)=O)C1OC(C)=O (stereo not drawn)"
class_assignment = "F"

[[record]]
molecule = "NC(=S)N/N=C1/CN(c2ccc(Cl)c(Cl)c2)CC(=O)C1c1nc2ccccc2s1 (stereo not drawn)"
class_assignment = "F"

[[record]]
molecule = "CCc1ccccc1NC(=O)CCc1nnc(S)[nH]1"
class_assignment = "F"

[[record]]
molecule = "Cc1ccc(-n2cnc3c(N/N=C4\\SCC(=O)N4c4ccccc4)ncnc32)cc1"
class_assignment = "F"

[[record]]
molecule = "COc1ccc2nc(NC(=O)/C(C#N)=C/c3ccccc3)sc2c1"
class_assignment = "F"

[[record]]
molecule = "COc1ccc(N[S+]([O-])CCCc2ccccc2)cc1 (stereo not drawn)"
class_assignment = "F"

[[record]]
molecule = "O=C(O)c1ccc(N2C=[N+]3C(=Nc4ccccc43)C2)cc1"
class_assignment = "F"

[[record]]
molecule = "CCc1nnc2sc(-c3ccc(-c4ccccc4[N+](=O)[O-])o3)nn12"
class_assignment = "F"

[[record]]
molecule = "Cc1cn(C(CO)OC(CO)CN(O)C2C3CC4CC(C3)CC2C4)c(=O)[nH]c1=O (stereo not drawn)"
class_assignment = "F"

[[record]]
molecule = "CCOC(=O)C(NC(=O)c1ccccc1)(Nc1ccc(S(=O)(=O)Nc2ccc(OC)nn2)cc1)C(F)(F)F (stereo not drawn)"
class_assignment = "F"

[[record]]
molecule = "Fc1ccc(/C=C2\\COCC3=C2NC(=S)NC3c2ccc(F)cc2)cc1 (stereo not drawn)"
class_assignment = "F"

